# target_system: ABCB4 WT (Homo sapiens, UniProt P21439)
# Sequence (P21439 whole entry): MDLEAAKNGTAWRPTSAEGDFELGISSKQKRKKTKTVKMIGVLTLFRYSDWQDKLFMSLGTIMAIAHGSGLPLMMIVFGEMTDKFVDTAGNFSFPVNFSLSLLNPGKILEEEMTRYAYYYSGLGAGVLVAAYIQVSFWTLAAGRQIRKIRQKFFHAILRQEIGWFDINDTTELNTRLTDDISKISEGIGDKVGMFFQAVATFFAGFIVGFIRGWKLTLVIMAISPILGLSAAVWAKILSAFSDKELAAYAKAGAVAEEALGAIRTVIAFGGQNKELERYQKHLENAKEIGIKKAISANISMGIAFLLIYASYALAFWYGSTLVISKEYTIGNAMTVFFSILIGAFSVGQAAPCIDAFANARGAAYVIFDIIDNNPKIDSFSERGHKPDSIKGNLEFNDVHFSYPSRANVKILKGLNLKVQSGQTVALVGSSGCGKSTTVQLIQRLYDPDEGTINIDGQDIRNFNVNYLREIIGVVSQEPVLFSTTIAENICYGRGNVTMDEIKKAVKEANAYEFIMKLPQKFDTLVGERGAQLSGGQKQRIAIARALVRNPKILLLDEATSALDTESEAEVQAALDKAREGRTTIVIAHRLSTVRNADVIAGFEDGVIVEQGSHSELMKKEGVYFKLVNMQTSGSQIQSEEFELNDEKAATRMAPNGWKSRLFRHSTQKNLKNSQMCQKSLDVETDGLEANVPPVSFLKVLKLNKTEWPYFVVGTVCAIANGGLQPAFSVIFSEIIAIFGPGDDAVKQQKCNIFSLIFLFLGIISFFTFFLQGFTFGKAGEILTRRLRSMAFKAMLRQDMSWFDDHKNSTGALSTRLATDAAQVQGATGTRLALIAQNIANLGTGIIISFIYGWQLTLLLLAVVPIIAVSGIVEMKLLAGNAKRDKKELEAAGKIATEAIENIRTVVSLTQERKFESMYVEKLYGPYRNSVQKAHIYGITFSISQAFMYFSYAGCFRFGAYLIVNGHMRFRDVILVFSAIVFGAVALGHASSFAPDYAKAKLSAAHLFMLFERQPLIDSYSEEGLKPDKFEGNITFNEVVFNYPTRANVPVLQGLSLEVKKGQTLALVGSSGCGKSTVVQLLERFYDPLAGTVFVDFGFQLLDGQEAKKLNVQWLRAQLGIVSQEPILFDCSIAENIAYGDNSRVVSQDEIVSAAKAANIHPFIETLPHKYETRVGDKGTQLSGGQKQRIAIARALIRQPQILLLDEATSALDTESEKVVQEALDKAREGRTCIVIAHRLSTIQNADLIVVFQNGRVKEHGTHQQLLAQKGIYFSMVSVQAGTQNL
# experimental_protocol: ABCB4 WT assay: HiBit protein expression
# particulars: HEK-293 cells stably expressing HiBit-tagged ABCB4 WT; 24 h treatment; top concentration 30 μM; read-out: ABCB4 WT EC50, Emax
Recorded measurements of EC50, one per entry

Sample answers from the record:
{"sample_smiles": "Cc1cc(C)c(Oc2nc(-c3cc(C#N)cnc3C)ccc2NS(C)(=O)=O)c(C)n1", "EC50": "< 25 µM"}
{"sample_smiles": "Cc1cc(C(F)F)nc(C2CC2)c1Oc1nc(-c2cncc(C#N)c2)ccc1N(C)S(C)(=O)=O", "EC50": "< 1 µM"}
{"sample_smiles": "Cc1cc(C)c(Oc2nc(N3CCC(C#N)CC3)ccc2NS(C)(=O)=O)c(C)c1", "EC50": "≥ 25 µM"}
{"sample_smiles": "Cc1nc(C(F)(F)F)nc(C2CC2)c1Oc1nc(-c2cncc(C#N)c2)ccc1S(=O)(=O)Nc1cnn(C)c1", "EC50": "< 1 µM"}
{"sample_smiles": "Cc1cc(C)c(Oc2nc(N3CCN(C(=O)C4(C)CC4)CC3)ccc2NS(C)(=O)=O)c(C)c1", "EC50": "1 to 10 µM"}

Kindly note: ABCB4 WT (Homo sapiens, UniProt P21439), Cc1cc(C)c(Oc2nc(-c3cncc(Cl)c3)ccc2NS(=O)(=O)c2cccnc2)c(C)c1 , EC50 value reported: ≥ 25 µM

Entry Cc1cc(C)c(Oc2nc(-c3cncc(Cl)c3)ccc2NS(=O)(=O)C(C)C)c(C)c1 under ABCB4 WT (Homo sapiens, UniProt P21439) had EC50 of ≥ 25 µM

# EC50 measured on ABCB4 WT (Homo sapiens, UniProt P21439) for item Cc1cc(C)c(Oc2nc(-c3cncc(Cl)c3)ccc2NS(C)(=O)=O)c(C)c1 = ≥ 25 µM

Reported EC50 (ABCB4 WT (Homo sapiens, UniProt P21439)) for entry Cc1cc(C)c(Oc2nc(N3CCN(C(=O)C4CC4)CC3)ccc2S(N)(=O)=O)c(C)c1 is ≥ 25 µM

----------
# target_system: UniProtKB O95255
# Sequence (O95255 whole entry): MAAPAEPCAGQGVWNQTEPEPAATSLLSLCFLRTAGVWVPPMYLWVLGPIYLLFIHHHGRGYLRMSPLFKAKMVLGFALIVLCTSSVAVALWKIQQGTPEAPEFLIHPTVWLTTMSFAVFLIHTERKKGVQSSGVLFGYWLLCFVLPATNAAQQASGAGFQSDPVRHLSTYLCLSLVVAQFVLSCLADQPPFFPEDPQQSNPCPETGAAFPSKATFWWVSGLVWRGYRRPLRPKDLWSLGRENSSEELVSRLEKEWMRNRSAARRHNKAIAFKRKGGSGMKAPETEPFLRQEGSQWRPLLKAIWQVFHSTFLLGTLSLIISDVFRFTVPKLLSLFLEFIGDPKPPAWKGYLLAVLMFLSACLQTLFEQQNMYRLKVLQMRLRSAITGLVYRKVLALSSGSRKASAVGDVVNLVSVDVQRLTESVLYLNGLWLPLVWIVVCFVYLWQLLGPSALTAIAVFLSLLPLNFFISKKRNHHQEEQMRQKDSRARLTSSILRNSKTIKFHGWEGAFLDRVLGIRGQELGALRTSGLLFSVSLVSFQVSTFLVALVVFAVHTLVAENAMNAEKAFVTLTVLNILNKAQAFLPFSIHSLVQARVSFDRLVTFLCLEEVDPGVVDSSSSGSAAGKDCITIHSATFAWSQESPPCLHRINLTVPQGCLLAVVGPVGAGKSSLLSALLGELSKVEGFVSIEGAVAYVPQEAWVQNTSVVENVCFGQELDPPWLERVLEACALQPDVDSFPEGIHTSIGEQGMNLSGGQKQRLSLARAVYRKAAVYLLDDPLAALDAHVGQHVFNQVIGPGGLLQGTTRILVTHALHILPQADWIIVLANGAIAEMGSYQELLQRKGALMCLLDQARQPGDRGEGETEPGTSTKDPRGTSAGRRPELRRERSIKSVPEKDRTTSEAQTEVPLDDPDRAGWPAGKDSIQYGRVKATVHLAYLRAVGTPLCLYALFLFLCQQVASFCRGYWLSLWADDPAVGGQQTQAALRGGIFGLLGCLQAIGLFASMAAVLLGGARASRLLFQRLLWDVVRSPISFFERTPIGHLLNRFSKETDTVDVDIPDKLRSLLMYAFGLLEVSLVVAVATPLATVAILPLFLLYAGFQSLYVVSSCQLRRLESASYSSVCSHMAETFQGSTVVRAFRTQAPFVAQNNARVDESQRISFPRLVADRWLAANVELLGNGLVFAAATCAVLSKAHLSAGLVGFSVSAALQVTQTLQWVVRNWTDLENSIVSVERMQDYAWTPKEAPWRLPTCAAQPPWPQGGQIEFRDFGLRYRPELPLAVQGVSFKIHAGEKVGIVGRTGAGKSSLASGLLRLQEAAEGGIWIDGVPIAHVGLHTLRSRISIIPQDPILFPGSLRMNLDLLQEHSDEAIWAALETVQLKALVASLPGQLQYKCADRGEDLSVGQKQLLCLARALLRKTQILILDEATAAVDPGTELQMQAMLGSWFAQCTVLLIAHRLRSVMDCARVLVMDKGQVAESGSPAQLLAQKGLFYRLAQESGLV
# experimental_protocol: ABCC6 WT assay: HiBit protein expression
# particulars: HEK-293 cells transiently expressing HiBit-tagged ABCC6 WT; 24 h treatment; top concentration 20 μM; read-out: ABCC6 WT EC50, Emax
pEC50: −log10 of the molar value.
endpoint: pEC50

Sample records with pEC50:
{"compound": "CNS(=O)(=O)c1ccc(-c2cncc(C#N)c2)nc1Oc1c(C)cc(C2CC2)nc1C1CC1", "pEC50": "5.00 to 6.00"}
{"compound": "CNS(=O)(=O)c1ncc(-c2cncc(Cl)c2)nc1Oc1c(C)cc(C)c(Cl)c1C", "pEC50": "> 4.60"}

Reported pEC50 for Cc1cc(C)c(Oc2nc(-c3cncc(C#N)c3)ccc2N2CCCS2(=O)=O)c(C)n1 was 5.00 to 6.00

The compound listed as Cc1cc(C)c(Oc2nc(-c3cncc(C#N)c3)ccc2NS(=O)(=O)C2CCC2)c(C)n1 has a reported pEC50 of > 6.00

Per the record, COC1CC(NS(=O)(=O)c2ccc(-c3cncc(Cl)c3)nc2Oc2c(C)cc(C)cc2C)C1 (stereo not drawn) has pEC50 of > 6.00

From: patent US20250228835A1
